Every entry's value here was drawn from paper PMC8698657.

test: Trans-enterocyte transport of CA in Caco-2 cell monolayer; type: in vitro ADME, human; conditions: human, Caco-2, CA 100 μM, Average of 0.5-3.0 h

Compound: CC(C)c1cc2c(c(O)c1O)[C@@]1(C(=O)O)CCCC(C)(C)[C@@H]1CC2 [CA, Carnosic acid]
Result Units: ×10⁻⁶ cm/s
Papp B→A at 100 μM: 1.24

###

experiment: Trans-enterocyte transport of CA in Caco-2 cell monolayer; format: in vitro ADME, human; conditions: human, Caco-2, CA 100 μM, 0.5 h

Smiles Entry: CC(C)c1cc2c(c(O)c1O)[C@@]1(C(=O)O)CCCC(C)(C)[C@@H]1CC2
efflux ratio at 0.5 h, 100 μM: 0.35

###

assay: Trans-enterocyte transport of CA in Caco-2 cell monolayer; type: in vitro ADME, human; settings: human, Caco-2, CA 75 μM, 0.5 h
Observable: efflux ratio at 0.5 h, 75 μM

Smiles Entry: CC(C)c1cc2c(c(O)c1O)[C@@]1(C(=O)O)CCCC(C)(C)[C@@H]1CC2
Value Measured: 0.88

###

assay: Trans-enterocyte transport of CA in Caco-2 cell monolayer; type: in vitro ADME, human; settings: human, Caco-2, CA 75 μM, 1.5 h; read-out: Papp AP-BL

Smiles Entry: CC(C)c1cc2c(c(O)c1O)[C@@]1(C(=O)O)CCCC(C)(C)[C@@H]1CC2
Papp A→B at 1.5 h, 75 μM [×10⁻⁶ cm/s]: 0.83

###

Test: Trans-enterocyte transport of CA in Caco-2 cell monolayer
Format: in vitro ADME, human
Conditions: human, Caco-2, CA 100 μM, 1.0 h
Method: Caco-2 were cultured in EMEM complete medium containing 10% FBS, 1% non-essential amino acids, and 1% penicillin-streptomycin double antibody, and the culture conditions were 37 °C, 5% CO2, in a constant temperature incubator [16]. We first established non-toxic dose ranges of CA in Caco-2 cells using MTT assay. […] A quantity of 200 μL of medium was added to each well to obtain a series of CA solutions (concentrations of 25, 50, 75, and 100 μmoL). […]

Molecule: CC(C)c1cc2c(c(O)c1O)[C@@]1(C(=O)O)CCCC(C)(C)[C@@H]1CC2 [CA, Carnosic acid]
Papp B→A at 1 h, 100 μM: 0.56 ×10⁻⁶ cm/s

###

test: Trans-enterocyte transport of CA in Caco-2 cell monolayer; format: in vitro ADME, human; conditions: human, Caco-2, CA 75 μM, 3.0 h

Smiles Entry: CC(C)c1cc2c(c(O)c1O)[C@@]1(C(=O)O)CCCC(C)(C)[C@@H]1CC2
Papp B→A at 3 h, 75 μM / ×10⁻⁶ cm/s: 0.38

###

experiment: Effect of verapamil, PEG 400 and EDTA on trans-enterocyte transport of CA; assay type: in vitro ADME, human; details: human, Caco-2, CA 50 μM, 0.5 h, + 5 mmoL/L EDTA; read-out: Papp AP to BL

Molecule: CC(C)c1cc2c(c(O)c1O)[C@@]1(C(=O)O)CCCC(C)(C)[C@@H]1CC2 [CA, Carnosic acid]
Result Units: ×10⁻⁶ cm/s
Papp A→B at 0.5 h, 50 μM: 0.5

###

test: Effect of verapamil, PEG 400 and EDTA on trans-enterocyte transport of CA; assay type: in vitro ADME, human; conditions: human, Caco-2, CA 75 μM, 1.5 h, + 5% PEG 400; read-out: Papp AP to BL

Compound: CC(C)c1cc2c(c(O)c1O)[C@@]1(C(=O)O)CCCC(C)(C)[C@@H]1CC2 [CA, Carnosic acid]
Papp A→B at 1.5 h, 75 μM: 2.72 ×10⁻⁶ cm/s
